Where do these numbers come from? They come from patent US20210196796A1.

system-tested: T1, orthogonal hCD122 receptor (hoRb), hCD122 with H133D and Y134F (human, UniProt P14784 27-550)
T1 sequence: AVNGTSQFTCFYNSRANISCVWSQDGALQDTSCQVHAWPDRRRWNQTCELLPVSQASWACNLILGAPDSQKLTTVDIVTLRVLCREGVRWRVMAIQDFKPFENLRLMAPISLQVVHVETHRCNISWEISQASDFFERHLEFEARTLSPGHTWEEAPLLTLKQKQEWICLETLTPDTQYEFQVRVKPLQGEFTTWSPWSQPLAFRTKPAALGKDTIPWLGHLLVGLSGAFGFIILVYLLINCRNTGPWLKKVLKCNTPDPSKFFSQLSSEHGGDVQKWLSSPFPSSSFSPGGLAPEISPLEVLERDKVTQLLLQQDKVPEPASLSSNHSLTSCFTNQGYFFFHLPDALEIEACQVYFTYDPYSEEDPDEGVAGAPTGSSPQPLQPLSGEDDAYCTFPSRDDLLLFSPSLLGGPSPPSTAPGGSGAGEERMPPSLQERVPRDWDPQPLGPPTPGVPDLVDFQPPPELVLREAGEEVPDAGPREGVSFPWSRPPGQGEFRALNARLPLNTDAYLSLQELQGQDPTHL
test-method-notes: cell-based or functional assay
measured-endpoint: 3F8 Ortho Proliferation Signal 1:10 (cts/min)

a: R81Y, SQVLKA (ligand) APTSSSTKKTQLQLSQLLVLLKAILNGINNYKNPKLTRMLTFKFYMPKKATELKHLQCLEEELKPLEEVLNLAQSKNFHLYPRDLISNINVIVLELKGSETTFMCEYADETATIVEFLNRWITFCQSIISTLT
b: Q126I, SQVLKA (ligand) APTSSSTKKTQLQLSQLLVLLKAILNGINNYKNPKLTRMLTFKFYMPKKATELKHLQCLEEELKPLEEVLNLAQSKNFHLRPRDLISNINVIVLELKGSETTFMCEYADETATIVEFLNRWITFCISIISTLT
Data request: Among a and b , whose measured 3F8 Ortho Proliferation Signal 1:10 is the smaller figure? Pick one; state its label.
Data returned: b
